Tested on: P388 leukemia ip, CD2F1 mice, survival T/C
Assay: NCI In Vivo Anticancer Drug Screen. Data for tumor model P388 Leukemia (intraperitoneal) in CD2F1 (CDF1) mice
Settings: endpoint: median survival time; dose: 400.0 mg/kg/injection; schedule: Q04DX003 (ip); vehicle: saline
Description: The antitumor activity of compounds was measured in mice bearing transplantable tumors. Survival or tumor size were measured and the results are expressed as the measurement made in the treated group (T) divided by the measurement made in the vehicle treated control group (C). The tumor model used in this assay is P388 Leukemia (intraperitoneal) in CD2F1 (CDF1) mice
Inconclusive results and toxic doses are left out. The calls were made as follows: active = survival T/C of 150% or more; inactive = T/C below 125% in these data.
Pick one and only one: class 1 for active, class 0 for inactive

For orientation, consider the following solved cases.
CCCCC(NC(C)(C)C)c1ccccc1 (stereo not drawn) : class 0
CCOC(=O)NC(NC(=O)OCC)c1ccccc1[N+](=O)[O-] : class 0

INPUT: Each molecule tested received a call. Report the one for C=CC(C)(O)CS(=O)c1ccccc1 (stereo not drawn) .
OUTPUT: class 0

INPUT: Repeat for the following molecule: CC(C)(C)C=O
OUTPUT: class 0

INPUT: Lookup O=C(O)C1CSC2(CCCCC2)N1 (stereo not drawn)
OUTPUT: class 0

====

test system: P388 leukemia ip, CD2F1 mice, survival T/C; test: NCI In Vivo Anticancer Drug Screen. Data for tumor model P388 Leukemia (intraperitoneal) in CD2F1 (CDF1) mice; details: endpoint: median survival time; dose: 120.0 mg/kg/injection; schedule: Q01DX005 (ip); vehicle: Klucel (hydroxypropylcellulose) (HPC); higher = longer survival
Toxic doses and inconclusive results are not listed.
Hi there, I'd appreciate the recorded T/C for every entry that follows.

Below are worked cases with known answers.
O=C(Nc1c(Cl)cccc1Cl)OCc1ccc2c(c1)OCO2 : 90 % of control
CNC1NC(=O)c2ccccc2N1Cc1ccc(F)cc1 (configuration not stated) : 92 % of control
Cc1cccc2c(=O)n3c(cc12)-c1[nH]c2ccccc2c1CC3 : 97 % of control
CC(=O)Nc1nc(C)c(CCCOc2ccc([N+](=O)[O-])cc2)c(=O)[nH]1 : 86 % of control

Your task in this section: give T/C for each listed record.
1. CCOc1c(N=Nc2ccc([N+](=O)[O-])cc2)c(C)nn1C(N)=S
2. C1C2CC3C1C1OC3C21
3. Cc1nn2c(nnn2CCO)c1-c1ccccc1

OUTPUT:
1. 95 % of control
2. 99 % of control
3. 91 % of control

====

Record form. Attribute: T/C. Fill in for each entry.
tested on: P388 leukemia ip, CD2F1 mice, survival T/C; test: NCI In Vivo Anticancer Drug Screen. Data for tumor model P388 Leukemia (intraperitoneal) in CD2F1 (CDF1) mice; conditions: endpoint: median survival time; dose: 200.0 mg/kg/injection; schedule: Q04DX003 (ip); vehicle: saline with Tween-80; higher = longer survival
Inconclusive results and toxic doses are left out.

Known results for compounds:
Cc1c(NS(=O)(=O)c2ccccc2)c(C)c(NS(=O)(=O)c2ccccc2)c(C)c1NS(=O)(=O)c1ccccc1 : 90 % of control
FC(F)(F)c1nc(Cc2ccccc2)c(C(F)(F)F)o1 : 93 % of control
CC(=O)CC(=O)Nc1cc(Cl)c(NC(=O)CC(C)=O)cc1Cl : 104 % of control
O=[N+]([O-])c1ccc(N/N=C(\CO)c2ccccc2)c([N+](=O)[O-])c1 : 100 % of control
O=[N+]([O-])c1ccc(S(=O)(=O)O)cc1 (tested in a mixture with another compound) : 101 % of control
CC(C)CCC(C)C1CCC2C3CC([N+](=O)[O-])=C4CC(OC(=O)c5ccccc5)CCC4(C)C3CCC12C (centres undefined) : 90 % of control
CC(C)CSC(C)C : 100 % of control
O=C1NC(=O)C(Cc2ccccc2)(Cc2ccccc2)C(=O)N1 : 100 % of control

Answer for every listed entry: what is its T/C? The entries follow.
1. O=c1[nH]c(=O)n(C2CC(O)C(CO)O2)cc1O (centres undefined)
2. Cn1ncc2c(NCc3ccccc3)ncnc21
3. C=C(C)C(=O)NCC(=O)NCC(=O)NCC(=O)Oc1ccc([N+](=O)[O-])cc1
4. O=c1[nH]nc(-c2ccc(Br)cc2)s1
5. CCOC(OCC)c1ccc(C)cc1
6. CC1(C)CC2(CC3(C1)SCCS3)OCCO2
7. CS(=O)(=O)OCC(O)C(O)COS(C)(=O)=O (centres undefined)

OUTPUT:
99 % of control
95 % of control
99 % of control
100 % of control
108 % of control
99 % of control
104 % of control

====

What T/C was measured for each of the following?
Tested on: P388 leukemia ip, CD2F1 mice, survival T/C
Assay: NCI In Vivo Anticancer Drug Screen. Data for tumor model P388 Leukemia (intraperitoneal) in CD2F1 (CDF1) mice
Conditions: endpoint: median survival time; dose: 100.0 mg/kg/injection; schedule: Q04DX003 (ip); vehicle: saline with Tween-80; higher = longer survival
Description: The antitumor activity of compounds was measured in mice bearing transplantable tumors. Survival or tumor size were measured and the results are expressed as the measurement made in the treated group (T) divided by the measurement made in the vehicle treated control group (C). The tumor model used in this assay is P388 Leukemia (intraperitoneal) in CD2F1 (CDF1) mice
Toxic doses and inconclusive results are not listed.

Observe how each entry below is paired with its result.
CC(C)(C)c1cc(C(C)(C)O)c2c(c1)C(C)(C)OS2 : 106 % of control
CC(=O)Nc1ccc2c(c1)C(N)c1ccccc1-2 (stereo not given) : 104 % of control
COc1cc([C@@H]2c3cc4c(cc3[C@H](OC(C)=O)[C@H]3COC(=O)[C@@H]23)OCO4)cc(OC)c1OC : 115 % of control
O=C(O)/C=C/C(=O)Nc1ccc(N=Nc2ccccc2)cc1 : 100 % of control

Now take the following molecule into account.
INPUT: Need T/C, item COc1ccccc1N1CCN(CCc2c[nH]c3cc4c(cc23)OCO4)CC1
OUTPUT: 121 % of control

====

Could you please report measured T/C for the items listed next?
system: P388 leukemia ip, CD2F1 mice, survival T/C; test: NCI In Vivo Anticancer Drug Screen. Data for tumor model P388 Leukemia (intraperitoneal) in CD2F1 (CDF1) mice; details: endpoint: median survival time; dose: 200.0 mg/kg/injection; schedule: Q04DX003 (ip); vehicle: saline with Tween-80; higher = longer survival
Inconclusive results and toxic doses are left out.

COc1cccc(N(CCO)C2CCCCC2)c1 : 90 % of control
O=C(O)c1ccccc1N=N/C(=N\Nc1ccccc1C(=O)O)c1cccc2cccnc12 : 106 % of control
CCCCOCC(=O)OCCCC : 115 % of control
CCO/C(=C\C(=O)c1ccccc1)c1ccccc1 : 100 % of control

Each of the following entries comes with a recorded value; kindly state T/C for each.
1. COC(=O)C12CCc3cc(OC)ccc3C1=CC(=O)C2 (configuration not stated)
2. NCc1c(Cl)c(Cl)c(Cl)c(CN)c1Cl
3. C=CCNc1ccc(C)cc1

OUTPUT:
100 % of control
105 % of control
122 % of control

====

test system: P388 leukemia ip, CD2F1 mice, survival T/C; assay: NCI In Vivo Anticancer Drug Screen. Data for tumor model P388 Leukemia (intraperitoneal) in CD2F1 (CDF1) mice; settings: endpoint: median survival time; dose: 100.0 mg/kg/injection; schedule: Q04DX003 (ip); vehicle: saline with Tween-80; higher = longer survival
Inconclusive results and toxic doses are left out.
For each entry below, report its T/C value.

Check out these entries, answers already filled in.
N#C/C(=C\C=C\c1ccccc1)C(N)=O : 104 % of control
N#CC(c1ccccc1)(N1CCOCC1)N1CCOCC1 : 100 % of control
CCOC(=O)N1C(=O)c2ccccc2C1=O : 120 % of control
N#CC(C#N)=C(C#N)C#N : 103 % of control
CC(=O)/C=C\c1ccc(Cl)cc1 : 113 % of control

I'm hoping you can list T/C for every compound here, please.
1. COc1ccc(-c2oc3cc(OC)c(OC)c(OC)c3c(=O)c2O)cc1O
2. Cc1cc(NC(=O)c2ccc(C(=O)Nc3ccc(C4=NCCN4)c(C)c3)cc2)ccc1C1=NCCN1
3. CC(=O)NC(Cc1cnc[nH]1)C(=O)O (stereo not drawn)
4. CCOC(=O)CCC(NC(=O)N(CCCl)CCCl)C(=O)OCC (stereo not drawn)

OUTPUT:
97 % of control
118 % of control
98 % of control
113 % of control

Each of the following entries comes with a recorded value; kindly state T/C for each.
1. CCCCCCC(C/C=C\CCCCCCCC(=O)OC)OC(C)=O (stereo not drawn)
2. Cn1ncc2c(NCc3ccccc3)ncnc21
3. CN(C)P1(=S)OCC(C(C)(C)C)CN1C (stereo not drawn)
4. CCN1CCC(=O)C1

OUTPUT:
["95 % of control", "104 % of control", "102 % of control", "105 % of control"]
